# test.protocol: soluble on expression in E. coli; label from the status in PepcDB or PDB records
readout: soluble on expression in E. coli

// known answers, use as guide
input_sequence=MKTICVFAGSNPGGNEAYKRKAAELGVYMAEQGIGLVYGGSRVGLMGTIADAIMENGGTAIGVMPSGLFSGEVVHQNLTELIEVNGMHERKAKMSELADGFISMPGGFGTYEELFEVLCWAQIGIHQKPIGLYNVNGYFEPMMKMVKYSIQEGFSNESHLKLIHSSSRPDELIEQMQNYSYPILEKKWTEI result=soluble
input_sequence=MADVPDQVDINVNVVEKPTGAIMFGAGYSDREGIILNGSIAQNNILGTGNFLSLQVNTGSVNKVISASFNNPYYTINGVSLGLEAFKRDINTRSLSSVGMFNTDTTGANIRFGIPVAENDIVSLGLGYEHTKIDLRDDSPQRFKDFVDQFGKTSNNLPITLSWARDRRNSAIWTTSGMTQRLFGEFGLPFGDLNYYKVSYEQRWFFPVTKMFTLMLNGEVGVGDGYSDKPLPFFKNFFAGGFNSVRGYNINTLGPRDSDDRVLGGSKRIVGNIEVLFPVPFMKEDKSVRLSAFADGGTIVNSFSGLGFDDFRYSAGLAATWISPMGPLKFSVAQPLNNQSGDKLQRFQFQFGQTFLEHHHHHH result=soluble
input_sequence=TSRKLNDAANERLAAQQDLRNAATLIVRDARMAGGFGCFNMSEHPATDVIPDTTQQNSPFSLKRNGIDKLIPIAESSNINYQNFFQVGSALIFQYGIDD result="not soluble"
input_sequence=MKNELICYKQMPVWTKDNLPQMFQEKHNTKVGTWGKLTVLKGKLKFYELTENGDVIAEHIFTPESHIPFVEPQAWHRVEALSDDLECTLGFYCKKEDYFSKKYNTTAIHGDVVDAAKIISPCKVLDLGCGQGRNSLYLSLLGYDVTSWDHNENSIAFLNETKEKENLNISTALYDINAANIQENYDFIVSTVVFMFLNRERVPSIIKNMKEHTNVGGYNLIVAAMSTDDVPCPLPFSFTFAENELKEYYKDWEFLEYNENMGELHKTDENGNRIKMKFATMLARKKLEHHHHHH result="not soluble"
input_sequence=MGSDKIHHHHHHLGPPTPLGLRAAPHNVTNLAQTPLAERLRSLVDTVQHNERTLRRFQSVELRLIGAQDFASFLDTLFGQLPREFSLAGVTLWLDDRAPMLRELLEPVALRALDQPRLRTSREGGLAAQGLCEDGRPWLGTPRELDDTVRRAFFGDAEQVPASAILLPLASGDTVGGYLWLGSDDAARFAQGMATDILERFASIVTASLDNVAHRERLKQLGMTDSLTGLANRRYFDERLREEVMRAVRYRMPVACLFIDIDSFKRINDTYGHQTGDRALAAVAACVRQQVRLGDTVARYGGEEFAALLQGDRADALTVAERVRLAVERLALQDDHGERIALTVSIGVAARMVSGTPTEAAMLGGAIIEEADRAMYQAKRNGRNRIEALVNASGDHTAG result="not soluble"
input_sequence=MEASKDISRLIEIMEALRQPETGCPWDVVQTFETIKPYTIEEAYEVADAIERKDMDDLCDELGDLLLQVVFHARIAEERGEFTFGDVVHAVTSKMIRRHPHVFDVSDADTPDSVKLQWDQIKAEEKRERAERRARRGITEDFKAGFLGGVQRSQPALTEALKLQEQAARVGFDWSDPAPILDKIEEEIAELREALAEGKPEKVSDELGDLIFALVNIGRHVKADPEDALRGTNTKFRRRFNHIETSLSDNGETLKEASLERMEDLWQAAKRIERSLDTVSS result="not soluble"
input_sequence=YETQSREKQTRQQHEHMLMIVSNLYEETVHLKKTLKTTEKVTNDSYQLYREMKGKDVQLSGRILRLAGEIHEVKKDNQRIFAGLSKLISNESLRDYMRASDLLQLVIRMNEKYAEALGKQIDFYCSIEGEHDEYHVFIVLSIINNLTANAVEAMDEEGMVSLRLRKPNESMVEFQVEDNGPGISEKIGDIVFDPGFTSKYDEFGTPSTGIGLSYVKEIVTELEGDITFDNQQRGVVFAIRLPVRHLIQKG result="not soluble"
input_sequence=MGSDKIHHHHHHMTILDHKIDFAVILSVTKANPNGDPLNGNRPRQNYDGHGEISDVAIKRKIRNRLLDMEEPIFVQSDDRKADSFKSLRDRADSNPELAKMLKAKNASVDEFAKIACQEWMDVRSFGQVFAFKGSNLSVGVRGPVSIHTATSIDPIDIVSTQITKSVNSVTGDKRSSDTMGMKHRVDFGVYVFKGSINTQLAEKTGFTNEDAEKIKRALITLFENDSSSARPDGSMEVHKVYWWEHSSKLGQYSSAKVHRSLKIESKTDTPKSFDDYAVELYELDGLGVEVIDGQ result="not soluble"
input_sequence=VNIKTNPFKAVSFVESAIKKALDNAGYLIAEIKYDGVRGNICVDNTANSYWLSRVSKTIPALEHLNGFDVRWKRLLNDDRCFYKDGFMLDGELMVKGVDFNTGSGLLRTKWTDTKNQEFHEELFVEPIRKKDKVPFKLHTGHLHIKLYAILPLHIVESGEDCDVMTLLMQEHVKNMLPLLQEYFPEIEWQAAESYEVYDMVELQQLYEQKRAEGHEGLIVKDPMCIYKRGKKSGWWKMKPENEADGIIQGLVWGTKGLANEGKVIGFEVLLESGRLVNATNISRALMDEFTETVKEATLSQWGFFSPYGIGDNDACTINPYDGWACQISYMEETPDGSLRHPSFVMFR result=soluble
input_sequence=SNAMSKKAELAELVKELAVVHGKVTLSSGKEADYYVDLRRATLHARASRLIGELLRELTADWDYVAVGGLTLGADPVATSVMHADGREIHAFVVRKEAKKHGMQRRIEGPDVVGKKVLVVEDTTTTGNSPLTAVKALREAGAEVVGVATVVDRATGAADVIAAEGLEYRYILGLEDLGLA result=soluble

Query string: What does the data say about its soluble on expression in E. coli? Entry: MGSDKIHHHHHHMRADIIKVNHLLEIEMENNIGKEYLPSRLEEISDEHWHISMPMRKGMYITMRVGQKIRIVLRYRNTMFAATTVIAARRRGHIPVLIVSKPKDLIAINQKRTYVRISVAIPVAFRLLLADGEKGELLQGVTGDISAGGMLLLSPQDMEKDQKIEVEIKLPDSDSIFCQAHVVRVLGKASEEGSNNKYAIEYDDINEGQRDRIFRFIFDKQREWLRKGVTE
Result string: not soluble
